Assay: chemical recovery by SPE of plasma after PDMS sampling; higher = better extraction
Settings: pooled human plasma; extraction method: HLB SPE of plasma after PES; equilibration time (d): 1
Decision: chemical recovery by SPE of plasma compared against 2%; not below it gives yes, below it gives no.

N#Cc1nn(-c2c(Cl)cc(C(F)(F)F)cc2Cl)c(N)c1S(=O)(=O)C(F)(F)F :: yes
CN1C(=O)CN=C(c2ccccc2)c2cc(Cl)ccc21 :: yes
CC(C)(C)NC(=O)[C@H]1CC[C@H]2[C@@H]3CC[C@H]4NC(=O)C=C[C@]4(C)[C@H]3CC[C@]12C [Finasteride] :: yes
Clc1cc(Cl)c(-c2ccc(Cl)c(Cl)c2Cl)cc1Cl :: yes
Cc1cccc(Nc2ccncc2S(=O)(=O)NC(=O)NC(C)C)c1 [Torasemide] :: yes

Request: Entry c1ccc2c(c1)cc1ccc3cccc4ccc2c1c34 : is its chemical recovery by SPE of plasma no less than 2%?
Response: no

Request: Entry CC(CN1c2ccccc2Sc2ccccc21)N(C)C (configuration not stated) : is its chemical recovery by SPE of plasma no less than 2%?
Response: no

Request: Hi, just wondering whether c1ccc2ncccc2c1 shows chemical recovery by SPE of plasma of 2% or higher.
Response: no

Request: Check the entry CCOC1Oc2ccc(OS(C)(=O)=O)cc2C1(C)C (configuration not stated) [Ethofumesate] : does chemical recovery by SPE of plasma equal or exceed 2%?
Response: no

Request: In plain terms: is recorded chemical recovery by SPE of plasma at least 2% for CCCCCCCCn1sccc1=O ?
Response: no

Request: Determine whether measured chemical recovery by SPE of plasma meets or exceeds 2% for CCCN(CC)CC1COC2(CCC(C(C)(C)C)CC2)O1 (configuration not stated)
Response: no

Request: Dear colleague, could you confirm whether CCCCn1cc[n+](C)c1 has chemical recovery by SPE of plasma at or above 2%?
Response: yes

Request: Reported chemical recovery by SPE of plasma at or above 2%? N#Cc1nn(-c2c(Cl)cc(C(F)(F)F)cc2Cl)c(N)c1[S+]([O-])C(F)(F)F (configuration not stated)
Response: yes

Request: Does chemical recovery by SPE of plasma meet or surpass 2% for CCCN(CCC)c1c([N+](=O)[O-])cc(S(N)(=O)=O)cc1[N+](=O)[O-] ?
Response: yes

Request: Decide: chemical recovery by SPE of plasma of ClC(Cl)=C(c1ccc(Cl)cc1)c1ccc(Cl)cc1 >= 2%?
Response: no

Request: Tell me whether chemical recovery by SPE of plasma is at least 2% here: Clc1cccc(Cl)c1NC1=NCCN1
Response: yes

Request: Entry CCOP(=S)(OCC)SCn1nnc2ccccc2c1=O : is its chemical recovery by SPE of plasma no less than 2%?
Response: yes

====

Assay: chemical recovery from spiked human plasma; higher = better extraction
Details: pooled human plasma; extraction method: PES+SPE (3 d PDMS equilibration then HLB SPE)
property: chemical recovery (%)
A number alone suffices; assume %.

Solved entries (count: 8):
C[Si](Cn1cncn1)(c1ccc(F)cc1)c1ccc(F)cc1 :: 45.1
Brc1cc(Br)c(Oc2c(Br)cc(Br)c(Br)c2Br)cc1Br :: 5.01
NNc1ccccn1 [2-Hydrazinopyridine] :: 0.622
CCCCc1nc(Cl)c(CO)n1Cc1ccc(-c2ccccc2-c2nnn[nH]2)cc1 :: 44.5
O=P1(N(CCCl)CCCl)NCCCO1 (stereo not given) [Cyclophosphamide] :: 49.6
N#Cc1c[nH]cc1-c1cccc2c1OC(F)(F)O2 :: 67.2
CC(CN1c2ccccc2Sc2ccccc21)N(C)C (stereo not given) :: 0.204
Cc1ccc2cc3ccccc3cc2c1 :: 51.5

Request: Could you tell me which chemical recovery is on file for Oc1c(Br)cc(Cl)cc1Cc1cc(Cl)cc(Br)c1O ?
Response: 34.8

Request: Consider the compound shown here: C[N+](C)(C)CC(O)CCl (stereo not given) [(3-Chloro-2-hydroxypropyl)trimethylammonium] What is its recorded chemical recovery?
Response: 0.458
